- reported.conditions: in n-hexane, 283.15 K
attribute.measured: solubility (mole fraction)

{"columns": ["compound.structure.string", "attribute.measured", "val"],
 "data": [
  ["Clc1ncnc2[nH]ccc12", "solubility (mole fraction)", 0.000511]
]}

###

- reported.conditions: in n-hexane, 293.15 K
attribute.measured: solubility (mole fraction)

{"columns": ["compound.structure.string", "val"],
 "data": [
  ["Clc1ncnc2[nH]ccc12", 0.000851]
]}

###

- reported.conditions: in n-butanol, 288.15 K

{"columns": ["compound.structure.string", "solubility (mole fraction)"],
 "data": [
  ["Clc1ncnc2[nH]ccc12", 0.0157]
]}

###

- reported.conditions: in n-propanol, 298.15 K
attribute.measured: solubility (mole fraction)

{"columns": ["compound.structure.string", "val"],
 "data": [
  ["Clc1ncnc2[nH]ccc12", 0.018]
]}

###

- reported.conditions: in acetone, 303.15 K

{"columns": ["compound.structure.string", "solubility (mole fraction)"],
 "data": [
  ["Clc1ncnc2[nH]ccc12", 0.0265]
]}

###

- reported.conditions: in acetonitrile, 288.15 K

{"columns": ["compound.structure.string", "solubility (mole fraction)"],
 "data": [
  ["Clc1ncnc2[nH]ccc12", 0.00338]
]}

###

- reported.conditions: in ethanol, 278.15 K

{"columns": ["compound.structure.string", "solubility (mole fraction)"],
 "data": [
  ["Clc1ncnc2[nH]ccc12", 0.00849]
]}

###

- reported.conditions: in ethanol, 318.15 K

{"columns": ["compound.structure.string", "solubility (mole fraction)"],
 "data": [
  ["Clc1ncnc2[nH]ccc12", 0.0256]
]}

###

- reported.conditions: in acetone, 293.15 K
attribute.measured: solubility (mole fraction)

{"columns": ["compound.structure.string", "attribute.measured", "val"],
 "data": [
  ["Clc1ncnc2[nH]ccc12", "solubility (mole fraction)", 0.021]
]}

###

- reported.conditions: in n-heptane, 318.15 K

{"columns": ["compound.structure.string", "solubility (mole fraction)"],
 "data": [
  ["Clc1ncnc2[nH]ccc12", 0.00343]
]}

###

- reported.conditions: in n-propanol, 283.15 K
attribute.measured: solubility (mole fraction)

{"columns": ["compound.structure.string", "attribute.measured", "val"],
 "data": [
  ["Clc1ncnc2[nH]ccc12", "solubility (mole fraction)", 0.0114]
]}

###

- reported.conditions: in n-butanol, 318.15 K

{"columns": ["compound.structure.string", "solubility (mole fraction)"],
 "data": [
  ["Clc1ncnc2[nH]ccc12", 0.0317]
]}

###

- reported.conditions: in n-hexane, 313.15 K

{"columns": ["compound.structure.string", "solubility (mole fraction)"],
 "data": [
  ["Clc1ncnc2[nH]ccc12", 0.00202]
]}

###

- reported.conditions: in n-propanol, 293.15 K

{"columns": ["compound.structure.string", "solubility (mole fraction)"],
 "data": [
  ["Clc1ncnc2[nH]ccc12", 0.0155]
]}

###

- reported.conditions: in acetonitrile, 323.15 K
attribute.measured: solubility (mole fraction)

{"columns": ["compound.structure.string", "attribute.measured", "val"],
 "data": [
  ["Clc1ncnc2[nH]ccc12", "solubility (mole fraction)", 0.0124]
]}

###

- reported.conditions: in THF, 293.15 K
attribute.measured: solubility (mole fraction)

{"columns": ["compound.structure.string", "attribute.measured", "val"],
 "data": [
  ["Clc1ncnc2[nH]ccc12", "solubility (mole fraction)", 0.0594]
]}
